Quick reference for fitness among some compounds
test system: S. aureus Newman; test: fitness (endpoint OD595 vs no drug) (fraction); higher = more growth; conditions: first compound 75 µg/mL; partner 0.25 µg/mL; main component drawn;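 also: OD595 on entry to stationary phase over no-drug wells; at most 1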
Reply with just the number.

(Q) Could you share which fitness value was measured for CC[C@H](C)[C@H](N)C1=N[C@H](C(=O)N[C@@H](CC(C)C)C(=O)N[C@H](CCC(=O)O)C(=O)N[C@H](C(=O)N[C@H]2CCCCNC(=O)[C@H](CC(N)=O)NC(=O)[C@@H](CC(=O)O)NC(=O)[C@H](Cc3cnc[nH]3)NC(=O)[C@@H](Cc3ccccc3)NC(=O)[C@H]([C@@H](C)CC)NC(=O)[C@@H](CCCN)NC2=O)[C@@H](C)CC)CS1 [Bacitracin] + CC1=C\[C@@H](O)CC(=O)Cc2nc(co2)C(=O)N2CCC=C2C(=O)O[C@H](C(C)C)[C@H](C)/C=C/C(=O)NC\C=C\1 [Virginiamycin M1] ?
(A) 0.0704

Reference for the values: the supplement of paper PMC10627819
